Tested on: Candida albicans
ASSAY_PROTOCOL: Antifungal activity against Candida albicans incubated for 24 hrs by microdilution method
Assay type: functional, organism-based
Active and inactive are the calls of the source. No cut-off for these calls is given here.
ASSAY_ENDPOINT: Activity

>>> value_reported("COc1ccc2c(=O)cc(/C=C/[S+](C)[O-])oc2c1OC (stereo not drawn)")
"inactive"
>>> value_reported("COc1cc2oc(/C=C/[S+](C)[O-])cc(=O)c2cc1O (stereo not drawn)")
"inactive"
>>> value_reported("COc1ccc2c(=O)cc(/C=C/[S+](C)[O-])oc2c1O (stereo not drawn)")
"inactive"
>>> value_reported("C[S+]([O-])/C=C/c1cc(=O)c2cc(O)ccc2o1 (stereo not drawn)")
"inactive"
>>> value_reported("COc1ccc2oc(/C=C/[S+](C)[O-])cc(=O)c2c1 (stereo not drawn)")
"inactive"
>>> value_reported("COc1ccc2c(=O)cc(/C=C/[S+](C)[O-])oc2c1 (stereo not drawn)")
"inactive"
>>> value_reported("C[S+]([O-])/C=C/c1cc(=O)c2ccccc2o1 (stereo not drawn)")
"inactive"

We now examine a further compound.
What measured Activity is associated with COc1cc2oc(/C=C/[S+](C)[O-])cc(=O)c2cc1OC (stereo not drawn) on Candida albicans?
inactive
